Target: T1, human DLL3 (ACRO, DLL3-H52H4) (human, UniProt Q9NYJ7 27-492)
T1 construct: Bought
T1 sequence: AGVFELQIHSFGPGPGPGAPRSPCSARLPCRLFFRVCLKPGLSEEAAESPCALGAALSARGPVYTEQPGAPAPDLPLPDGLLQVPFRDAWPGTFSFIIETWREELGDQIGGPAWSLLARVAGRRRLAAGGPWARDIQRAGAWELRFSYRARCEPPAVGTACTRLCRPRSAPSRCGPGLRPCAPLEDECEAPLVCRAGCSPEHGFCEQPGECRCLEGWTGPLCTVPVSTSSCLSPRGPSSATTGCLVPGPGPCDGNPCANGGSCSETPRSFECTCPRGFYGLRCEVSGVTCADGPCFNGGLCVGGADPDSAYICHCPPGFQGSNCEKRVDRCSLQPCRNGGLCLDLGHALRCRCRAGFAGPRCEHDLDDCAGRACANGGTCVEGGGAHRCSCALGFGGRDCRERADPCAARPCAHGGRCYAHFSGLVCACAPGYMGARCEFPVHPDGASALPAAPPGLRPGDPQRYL
Test: SPR Biacore 8K, Ab captured on Protein A
# reported kon; entries follow
Give the number; M⁻¹ s⁻¹ is assumed, so skip it.

(Q) Need kon, item hu30L4H11 (antibody, human IgG1, kappa, V domains shown) VH: EVRLVQFGAVVKKPGASVKVSCKASGYTFTDYYMNWVRQAPGQSLEWMGIINPYTGDTSYNQKFRGRVTLTVDKSSSTAYMELSSLTSEDTAVYYCARYHYGPHLEGYFDVWGQGTTVTVSS VL: DIQMTQSPSSLSASVGDRVTITCKASENVGYVSWYQQKPGKAPKLLIYGASNRYTGVPSRFSGSGSGTDFTLTISSLQPEDFATYYCGQSYSYPLTFGQGTKLEIKR
(A) 398000

(Q) Need kon, item hu98L3H1 (antibody, human IgG1, kappa, V domains shown) VH: EVQLVESGGGLVQPGGSLRLSCAASGFTFSDYGIHWVRQAPGKGLEWVAYISSGGYTIYYADTVKGRFTISRDNAKNSLYLQMNSLRAEDTAVYYCARGDYDDIFYTMDYWGQGTTVTVSS VL: DIQMTQSPSSLSASVGDRVTITCRASRDITKFLNWYQQKPGGAVKLLIYYTSRLHSGVPSRFSGSGSGTDYTLTISSLQPEDFATYYCQQGNTLPWTFGGGTKVEIKR
(A) 1.6e+06

(Q) Need kon, item hu6L4H11 (antibody, human IgG1, kappa, V domains shown) VH: EVQLVQSGSELKKPGASVKVSCKASGYTFTDYYMNWVKQAPGQGLEWMGIINPYSGVTIYNHKFKGRFVLSVDKSSNTAYLQISSLKAEDTAVYYCARQDSLLDYAMDYWGQGTTVTVSS VL: DIQMTQSPSSLSASVGDRVTITCHASQGISGNMGWLQQKPGKAPKGLIYHGANLEDGVPSRFSGSGSGADYTLTISSLQPEDFADYYCVQYAQFPYTFGGGTKVEIKR
(A) 2.14e+06

(Q) Need kon, item hu6L1H1 (antibody, human IgG1, kappa, V domains shown) VH: EVQLVQSGAEVKKPGASVKVSCKASGYTFTDYYMNWVRQAPGQRLEWMGIINPYSGVTIYNHKFKGRVTITVDKSASTAYMELSSLRSEDTAVYYCARQDSLLDYAMDYWGQGTTVTVSS VL: DIQMTQSPSSLSASVGDRVTITCHASQGISGNMGWLQQKPGKAPKGLIYHGANLEDGVPSRFSGSGSGTDFTLTISSLQPEDFATYYCVQYAQFPYTFGGGTKVEIKR
(A) 798000

(Q) Need kon, item hu98L3H5 (antibody, human IgG1, kappa, V domains shown) VH: EVQLVESGGGLVQPGGSLRLSCAASGFTFSDYGMHWVRQAPGKGLEWVAYISSGGYTSYYADTVKGRFTISRDNAKNSLYLQMNSLRAEDTAVYYCARGDYEDIFYTMDYWGQGTTVTVSS VL: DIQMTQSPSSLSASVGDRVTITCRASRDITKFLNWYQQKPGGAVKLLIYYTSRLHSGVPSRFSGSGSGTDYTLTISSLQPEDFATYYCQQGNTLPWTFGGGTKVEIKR
(A) 1.42e+06
